# target.entity: recombinant Pa BfrB (Pseudomonas aeruginosa)
# Sequence (Q9HY79 whole entry): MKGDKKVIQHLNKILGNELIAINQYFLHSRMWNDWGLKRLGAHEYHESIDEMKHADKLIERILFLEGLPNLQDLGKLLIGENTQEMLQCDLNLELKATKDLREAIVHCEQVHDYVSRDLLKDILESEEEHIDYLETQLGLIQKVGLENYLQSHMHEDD
# method.summary: Dissociation constant (Kd), fluorescence quenching titration of apo Pa BfrB
# From the text: Measurement of Dissociation Constant (Kd) R ecombinant Pa BfrB was expressed in E. coli and purified as previously reported.19 Apo-BfrB (devoid of heme) was utilized for the measurements to prevent heme-driven fluorescence quenching. […] The fluorescence quenching brought by the addition of each aliquot was monitored with the aid of an Agilent Cary Fluorometer , with excitation at 280 nm, emission at 320- 470 nm, 10 x10 nm slit width, and an average of 5 scans per spectrum. […]
quantity: log10 of Kd (log10 of the value in µM)
All values: base-10 log of Kd in µM.

The following molecules have reported results that may help.
molecule: Cc1cc(Cl)cc(CNc2cccc3c2C(=O)NC3=O)c1O [SB-16-156]
log10 of Kd: 0.85
//
molecule: O=C1NC(=O)c2c(NCc3cccc4[nH]ccc34)cccc21 [SB-17-75]
log10 of Kd: 1.18

Moving on to the next molecule.
query: Under recombinant Pa BfrB (Pseudomonas aeruginosa), report log10 of Kd for O=C1NC(=O)c2c(NCc3c(O)cccc3Br)cccc21 [EB-5-72]
result: 1.18
